Listed next: entries and their corresponding IC50.
- System: K. pneumoniae (ATCC10031)
- Method Description: 50% growth inhibitory concentration (IC50) determination assay, K. pneumoniae
- Assay type: cell-based
- Experimental Conditions: Klebsiella pneumoniae, ATCC10031; Iso-Sensitest broth, growth by OD 600 nm over 16 h; <0.098 = detection limit

Illustrative cases are given below, each with its answer.
* CNc1cc(F)c(C#N)c2c1[nH]c1ncc(-c3ccc4ccc(C(=O)O)c(=O)n4c3)c(N3CC4C(N(C)C)CO[C@@H]4C3)c12 (stereo partly drawn) | < 98 nM
* CNc1cc(F)c(F)c2c1[nH]c1ncc(-c3ccc4ccc(C(=O)O)c(=O)n4c3)c(N3CC[C@@H]4CCN(C)[C@@H]4C3)c12 [Example 3.04B] | < 98 nM

-- ask // lookup IC50 | system=K. pneumoniae (ATCC10031) | key= CNc1cc(F)c(F)c2c1[nH]c1ncc(-c3ccc4ccc(C(=O)O)c(=O)n4c3)c(N3CC[C@@]4(C[C@H]4N)C3)c12 [Example 4.01B]
-- reply < 98 nM

-- ask Request: IC50, test system K. pneumoniae (ATCC10031), entry CNc1cc(F)c(F)c2c1[nH]c1ncc(-c3ccc4ccc(C(=O)O)c(=O)n4c3)c(N3CC4[C@H](CC[C@@H]4N(C)C)C3)c12 (stereo partly drawn)
-- reply < 98 nM

-- ask Give IC50 (K. pneumoniae (ATCC10031)) of the following compound: CNc1cc(F)cc2c1[nH]c1nc(Oc3cnc(C)nc3)nc(N3C[C@H]4C[C@@H]3C[C@H]4N)c12 [GP-6, reference compound]
-- reply < 98 nM

-- ask Identify the measured IC50 of `CNc1cc(F)c(C#N)c2c1[nH]c1ncc(-c3ccc4ccc(C(=O)O)c(=O)n4c3)c(N3CC[C@H]4CN(C)C[C@H]43)c12` for K. pneumoniae (ATCC10031).
-- reply < 98 nM

====

Parameter CC50 at 3 days: see the listing below.
- Method Description: Cytotoxicity assay (HepG2, CellTiter-Blue)
- Assay type: cell-based
- Experimental Conditions: human; HepG2 cells, 3 days treatment; >100 = detection limit

// known answers, use as guide
• CNc1cc(F)c(F)c2c1[nH]c1ncc(-c3ccc4ccc(C(=O)O)c(=O)n4c3)c(N3CC[C@@H]4CCN(C)[C@@H]4C3)c12 [Example 3.04B] = 10.8 µM
• CNc1cc(F)c(Cl)c2c1[nH]c1ncc(-c3ccc4ccc(C(=O)O)c(=O)n4c3)c(N3CC[C@@]4(C[C@H]4N)C3)c12 [Example 5.01C] = > 100 µM
• CNc1cc(F)c(F)c2c1[nH]c1ncc(-c3ccc4ccc(C(=O)O)c(=O)n4c3)c(N3CC[C@H]4CN(C)C[C@H]43)c12 = 15 µM

-- ask What does the data say about its CC50 at 3 days? Entry: CNc1cc(F)c(F)c2c1[nH]c1ncc(-c3ccc4c(CN5CCCC5)cc(C(=O)O)c(=O)n4c3)c(N3CC[C@H]4CN(C)C[C@H]43)c12 (relative stereo)
-- reply 89.2 µM

-- ask For CNc1cc(F)c(F)c2c1[nH]c1ncc(-c3ccc4ccc(C(=O)O)c(=O)n4c3)c(N3CC[C@]4(C[C@@H]4N)C3)c12 [Example 4.01D] , what is its reported CC50 at 3 days?
-- reply > 100 µM

-- ask Could you tell me which CC50 at 3 days is on file for CNc1cc(F)c(F)c2c1[nH]c1ncc(-c3ccc4ccc(C(=O)O)c(=O)n4c3)c(N3CCC4CN(C)C[C@@H]43)c12 (stereo in doubt) ?
-- reply 21.9 µM
